system: MAP4K5; details: concentration: 1 μM, replicates: in singlicate; n = 1;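 further: KINOMEscan kinase panel screen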
The following molecules are shown together with reported %Inh values.
Expressed in %, but write only the number.

Some solved cases for reference:
# Molecule, Unit Tag, Assay Value
rows = [
    ("Fc1ccc(-c2ncn(CCCNCc3ccccc3)c2-c2ccncc2)cc1", "%", 12),
    ("CC(=O)Nc1n[nH]c2ncc(-c3ccccc3)cc12", "%", 4),
    ("FC(F)(F)c1cc(Nc2nccc(-c3c(-c4ccc(Cl)cc4)nn4ncccc34)n2)ccc1Cl", "%", 0),
    ("CNc1nccc(-c2c(-c3ccc(F)cc3)ncn2C2CCN(C)CC2)n1", "%", 0),
    ("CS(=O)(=O)CCNCc1nc(-c2ccc3ncnc(Nc4ccc(OCc5cccc(F)c5)c(Cl)c4)c3c2)cs1.Cl", "%", 0),
]

q: Using the record for "CS(=O)(=O)CCNCc1ccc(-c2ccc3ncnc(Nc4ccc(OCc5ccccc5)c(Cl)c4)c3c2)o1.Cl" , report its %Inh.
a: 5

q: Using the record for "CC(C)N1CCC(n2cnc(-c3ccc(F)cc3)c2-c2ccnc(N)n2)CC1" , report its %Inh.
a: 0

q: Using the record for "N#Cc1ccc(Oc2ccc(Nc3ncnc4cc[nH]c34)cc2Cl)cc1" , report its %Inh.
a: 27

q: Using the record for "FC(F)(F)c1ccc(-c2nn3ncccc3c2-c2ccnc(Nc3cccc(C(F)(F)F)c3)n2)cc1" , report its %Inh.
a: 0

q: Using the record for "CCc1nc(-c2cccc(C)c2)c(-c2ccnc(NC(=O)c3ccccc3)c2)s1" , report its %Inh.
a: 0

q: Using the record for "Cc1cc(N2CCC(NS(=O)(=O)c3ccc(F)cc3)CC2)nc(Nc2cccc(C#N)c2)n1.O=C(O)C(F)(F)F" , report its %Inh.
a: 3
